tgt: Acetylcholinesterase (Electrophorus electricus, UniProt O42275)
Sequence (O42275 whole entry): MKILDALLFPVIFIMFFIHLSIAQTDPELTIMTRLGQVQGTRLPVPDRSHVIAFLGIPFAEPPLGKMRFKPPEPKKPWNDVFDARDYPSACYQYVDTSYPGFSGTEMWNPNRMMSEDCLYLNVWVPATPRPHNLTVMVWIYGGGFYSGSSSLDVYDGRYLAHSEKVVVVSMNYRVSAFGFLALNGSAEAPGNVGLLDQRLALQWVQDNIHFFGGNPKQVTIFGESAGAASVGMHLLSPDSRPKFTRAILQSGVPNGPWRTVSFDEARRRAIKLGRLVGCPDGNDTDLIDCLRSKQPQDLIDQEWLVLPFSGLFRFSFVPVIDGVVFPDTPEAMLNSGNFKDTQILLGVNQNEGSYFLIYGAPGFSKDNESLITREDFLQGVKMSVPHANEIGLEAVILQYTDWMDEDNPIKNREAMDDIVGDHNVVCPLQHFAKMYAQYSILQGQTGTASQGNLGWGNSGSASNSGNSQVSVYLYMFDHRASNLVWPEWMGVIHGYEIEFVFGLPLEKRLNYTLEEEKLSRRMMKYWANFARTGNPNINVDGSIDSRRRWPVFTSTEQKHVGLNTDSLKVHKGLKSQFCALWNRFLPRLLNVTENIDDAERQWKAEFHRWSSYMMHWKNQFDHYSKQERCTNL
pIC50: −log10 of the molar value.
Hi, to clarify the labels: class 1 covers pIC50 from 7 upward, class 0 covers anything below 7.

As a guide, the following entries are already answered.
c1ccc2oc(-c3ccc(OCCCCNc4c5c(nc6ccccc46)CCCC5)cc3)nc2c1 ... class 0
COc1ccc2cc3[n+](cc2c1OCCCOc1ccc(-c2cc4ccccc4o2)cc1)CCc1cc2c(cc1-3)OCO2 ... class 0
COc1ccc2cc3[n+](cc2c1OCCOc1ccc(-c2cc4ccccc4o2)cc1)CCc1cc2c(cc1-3)OCO2 ... class 0
c1ccc2sc(-c3ccc(OCCCCCNc4c5c(nc6ccccc46)CCCC5)cc3)nc2c1 ... class 1
COc1ccc2cc3[n+](cc2c1OCCCOc1ccc(-c2cc4ccccc4[nH]2)cc1)CCc1cc2c(cc1-3)OCO2 ... class 0

We now examine a further molecule.
Query string: Can `COc1ccc2cc3[n+](cc2c1OCCOc1ccc(-c2nc4ccccc4s2)cc1)CCc1cc2c(cc1-3)OCO2` be said to have pIC50 at or above 7?
Result string: class 0
